protocol: in vitro
condition description: human, Caco-2, pH 7.4, Papp A–B, amlodipine (20 μg/mL) and atorvastatin (40 μg/mL) in combination, pH 7.4, n=3, mean ± SD
property name: Papp A→B at 2 h (×10⁻⁶ cm/s)
Respond with the bare value in ×10⁻⁶ cm/s.

# compound CCOC(=O)C1=C(COCCN)NC(C)=C(C(=O)OC)C1c1ccccc1Cl (stereo not shown) [Amlodipine, Amlodipine besylate] ; its Papp A→B at 2 h = 5.4

###

protocol: in vitro
condition description: human, Caco-2, pH 7.4, Papp A–B, drug alone (amlodipine 20 μg/mL, atorvastatin 40 μg/mL), pH 7.4 both compartments, n=3, mean ± SD
property name: Papp A→B at 2 h (×10⁻⁶ cm/s)
Respond with the bare value in ×10⁻⁶ cm/s.

# molecule CCOC(=O)C1=C(COCCN)NC(C)=C(C(=O)OC)C1c1ccccc1Cl (stereo not shown) [Amlodipine, Amlodipine besylate] ; its Papp A→B at 2 h = 8.34

###

protocol: in vitro
condition description: human, Caco-2, pH 7.4, Efflux ratio, drug alone, pH 7.4 both compartments
property name: efflux ratio at 2 h
When you answer, write just the number.

# compound CCOC(=O)C1=C(COCCN)NC(C)=C(C(=O)OC)C1c1ccccc1Cl (stereo not shown) [Amlodipine, Amlodipine besylate] ; its efflux ratio at 2 h = 1.14

###

protocol: in vitro
condition description: human, Caco-2, pH 7.4, Papp B–A, amlodipine (20 μg/mL) and atorvastatin (40 μg/mL) in combination, pH 7.4, n=3, mean ± SD
property name: Papp B→A at 2 h (×10⁻⁶ cm/s)
Respond with the bare value in ×10⁻⁶ cm/s.

# compound CCOC(=O)C1=C(COCCN)NC(C)=C(C(=O)OC)C1c1ccccc1Cl (stereo not shown) [Amlodipine, Amlodipine besylate] ; its Papp B→A at 2 h = 5.18

###

protocol: in vitro
condition description: human, Caco-2, pH 7.4, Efflux ratio, amlodipine and atorvastatin in combination, pH 7.4
property name: efflux ratio at 2 h

# compound CCOC(=O)C1=C(COCCN)NC(C)=C(C(=O)OC)C1c1ccccc1Cl (stereo not shown) [Amlodipine, Amlodipine besylate] ; its efflux ratio at 2 h = 0.96
